Measured values drawn from ChEMBL document CHEMBL1201862 for this set.

- System: EKVX
- measurement.notes: NCI tumour cell line growth inhibition, 48 h
The source made the active and inactive calls. No stated cut-off is given here; in the data, active = GI50 up to about 1.1 µM and inactive = higher.
Examples of compounds with documented GI50 follow.

compound	result
CCOc1cc(NC(C)=O)ccc1C(=O)NN1C(=O)C(Oc2ccccc2)C1c1ccc(O)c(OC)c1 (stereo not given)	35.3 µM (inactive)
C/C(O)=C/C(=O)c1[nH]c(C(=O)O)cc1C1CCN(Cc2ccccc2)C1=O (stereo not given)	21.3 µM (inactive)
O=C1C=CC2(O[C@H](c3ccccc3)[C@@H](c3ccccc3)O2)[C@H](Sc2ccccc2O)C1	1.43 µM (inactive)
S=C(Nc1ccc(Cl)cc1)c1ccc(CN2CCCCC2)s1	12.3 µM (inactive)
Cc1c(N)c(C#N)c2n(C)c3ncccc3n2c1=O	> 100 µM (inactive)

What GI50 value was documented for this compound, COc1ccc(-n2cnc3c(NC(Cc4ccccc4)C(=O)O)ncnc32)cc1 (stereo not given) ?
> 100 µM (inactive)

What GI50 value was documented for this compound, C=C1C(C2(C)C(OC(C)=O)CC(=O)OC(C)(COC(C)=O)C2CC(=O)OC)C(OC=O)C(OC(=O)C(O)C(C)CC)C2(C)C(c3ccoc3)CC(=O)C12O (stereo not given) ?
6.32 µM (inactive)

What GI50 value was documented for this compound, `COc1cc(NC(C)=O)ccc1C(=O)N/N=C/c1ccc(Cl)cc1Cl` ?
32.7 µM (inactive)

What GI50 value was documented for this compound, CC(C)NCCCC(C)Nc1ccnc2ccc3nn(C)nc3c12 (stereo not given) ?
> 100 µM (inactive)

What GI50 value was documented for this compound, CC1(C)CC2C(=O)c3ccccc3NC2c2ccccc21 (stereo not given) ?
43.2 µM (inactive)

What GI50 value was documented for this compound, `CCc1ccccc1NC(=O)/C(=N/O)C(C)=O` ?
> 100 µM (inactive)

What GI50 value was documented for this compound, Cc1ccc(S(=O)(=O)N2C3C=CC(C3)[C@@H]2C(Cl)(Cl)Cl)cc1 (stereo not given in full) ?
5.22 µM (inactive)

What GI50 value was documented for this compound, COC(=O)C1=C(OC(=O)/C(=C/c2ccc(Cl)cc2)c2ccc(Cl)cc2)C(C(=O)OC)[C@@]2(O)[C@@H](C(=O)OC)[C@H](C)C[C@@H]1[C@@H]2C(=O)OC (stereo not given in full) ?
10.6 µM (inactive)

What GI50 value was documented for this compound, `C(#C[C@@]12CCC[C@@H]1N(Cc1ccccc1)CO2)c1ccc2c(c1)OCO2` ?
> 100 µM (inactive)

What GI50 value was documented for this compound, `CO/N=C(/C(=O)N(C(=O)/C(=N/OC)c1csc(NC(c2ccccc2)(c2ccccc2)c2ccccc2)n1)n1cnn(CC(=O)OC(C)(C)C)c1=O)c1csc(NC(c2ccccc2)(c2ccccc2)c2ccccc2)n1` ?
> 10 µM (inactive)

What GI50 value was documented for this compound, CC(CNC(N)=O)NC(N)=O (stereo not given) ?
> 100 µM (inactive)

What GI50 value was documented for this compound, `N#C/C(=C\c1ccc(O)c(O)c1)C(N)=O` ?
53 µM (inactive)

What GI50 value was documented for this compound, `O=C1C(c2ccccc2)=C(O)c2cccc3cccc1c23` ?
> 100 µM (inactive)

What GI50 value was documented for this compound, `NCCCCCCn1c(-c2ccc(Br)cc2)cs/c1=N\c1ccccc1` ?
13.8 µM (inactive)

What GI50 value was documented for this compound, `Nc1ncnc2c1ncn2[C@@H]1C[C@@H]1CO` ?
> 100 µM (inactive)

====

- Test system: HCC 2998
- measurement.notes: NCI tumour cell line growth inhibition, 48 h
Calls of active or inactive are those of the source. Cut-off read from the data, not from the text of the source: active = GI50 up to about 1.1 µM and inactive = higher.
Just give me one of these, please: active, inactive

Record excerpt, results attached:
compound	category
C/C=C1/CN2[C@@H](C3=C[C@@H]4[C@@H]5N(C3=O)c3ccccc3[C@@]53CCN5C/C(=C/C)[C@@H]4C[C@H]53)C[C@@]34c5ccccc5N5C(=O)CC=C([C@H]1C[C@H]23)[C@H]54	inactive
O=C1C=CC(=O)N1c1ccc(I)cc1	inactive
Cc1nc(O)nc2nc3ccc(Cl)cc3c(N(CCO)CCO)c12	inactive
CN(C)c1cc2ccccc2oc1=O	inactive
CC(C)N1CCOC(c2ccc(O)c(O)c2)C1 (configuration not stated)	inactive

Entry `[N-]=[N+]=NC[C@H]1OCO[C@H](CN=[N+]=[N-])[C@@H](OCCOCCCl)[C@@H]1OCCOCCCl` : call = ?
inactive

Entry Cc1cc(OCC(O)CO)ccc1Cl (configuration not stated) : call = ?
inactive

Entry CC(=O)OCC1OC(OC2C(COC(C)=O)OC(Sc3ccccc3C)C(OC(C)=O)C2OC(C)=O)C(OC(C)=O)C(OC(C)=O)C1OC(C)=O (configuration not stated) : call = ?
inactive

====

- Test system: CAKI-1
- measurement.notes: NCI tumour cell line growth inhibition, 48 h
Activity calls are given as the source filed them. Rule as the data show it: active = GI50 up to about 1.1 µM and inactive = higher.
Just give me one of these, please: true = active, false = inactive

Entry `O=[N+]([O-])c1ccc(/C(Cl)=C/c2ccc(/C=C(\Cl)c3ccc([N+](=O)[O-])cc3[N+](=O)[O-])cc2)c([N+](=O)[O-])c1` : call = ?
false

Entry CC1=CC2CC(C)=C(CC[C@]3(C)CC[C@H]([C@@H](C)C(=O)O)OO3)C(C)(C)C2CC1 (stereo not given in full) : call = ?
false

Entry [N-]=[N+]=NC1(Cc2ccccc2)C(=O)Nc2ccccc2C1=O (stereo not given) : call = ?
false

Entry `CC1=C(C(=O)Nc2ccccc2C)C(c2ccccc2)C(C(=O)Nc2ccccc2C)=C(C)N1` : call = ?
false

Entry Clc1ccc(OCC2NC3C=CC32)cn1 (stereo not given) : call = ?
false

Entry `CCCCCNC(=O)CCCCCCCCCCCNC(=O)CCCCCCCCCCN1C=CC(=CC=C2C=CC(=O)C=C2)C=C1` : call = ?
false

Entry `CCOC(=O)N/N=C(/N)c1cccc([N+](=O)[O-])c1` : call = ?
false

====

- System: ACHN
- measurement.notes: NCI tumour cell line growth inhibition, 48 h
The source made the active and inactive calls. Cut-off read from the data, not from the text of the source: active = GI50 up to about 1.1 µM and inactive = higher.
Just give me one of these, please: true (active), false (inactive)

Record excerpt, results attached:
COc1ccc(/C=C/C(=O)Oc2ccccc2OC)cc1 false
O=C1C(=O)N(C(=O)c2ccc(Cl)c(Cl)c2)c2ccc(Cl)cc21 false
NC(=O)CSc1c2cc(O)ccc2nc2ccc(O)cc12 false
COc1ccc2c(c1)c(=O)c1c(NCCCN(C)CCCNc3ccc4c(=O)n(CCN(C)C)c(=O)n5c6ccc(OC)cc6c(=O)c3c45)ccc3c(=O)n(CCN(C)C)c(=O)n2c31 true
CCC1([N+](=O)[O-])CN(N=O)C1 false
O=C(O)c1cnccc1-c1cc(=O)[nH]n1-c1ccccc1 false
C/C(=C/C(=O)Nn1c(Cc2ccccc2)n[nH]c1=O)C(=O)O false
CN(C)CCNc1ccc2c(=O)n(CCN(C)C)c(=O)n3c4ccc([N+](=O)[O-])cc4c(=O)c1c23 true

Now for another entry.
Entry `CO/N=C(/C(=O)N(C(=O)/C(=N/OC)c1csc(NC(c2ccccc2)(c2ccccc2)c2ccccc2)n1)n1cnn(CC(=O)OC(C)(C)C)c1=O)c1csc(NC(c2ccccc2)(c2ccccc2)c2ccccc2)n1` : call = ?
false

====

- Tested on: M19-MEL
- measurement.notes: NCI tumour cell line growth inhibition, 48 h
Active and inactive are the calls of the source. Cut-off read from the data, not from the text of the source: active = GI50 up to about 1.1 µM and inactive = higher.
Just give me one of these, please: Yes for active, No for inactive

compound	category
Nc1c2ccccc2nc2c(C(=O)Nc3ccc(S(N)(=O)=O)cc3)cccc12	No

Entry COC(=O)[C@]12CCC(C)[C@H](C)[C@H]1C1=CCC3[C@@]4(C)CC[C@H](OC(C)=O)C(C)(C)C4CC[C@@]3(C)C1(C)C(O)C2 (stereo partly specified) : call = ?
No

====

- System: NCI-H460
- measurement.notes: NCI tumour cell line growth inhibition, 48 h
Calls of active or inactive are those of the source. Rule as the data show it: active = GI50 up to about 1.1 µM and inactive = higher.
measurement.label: GI50

Some solved cases for reference:
molecule	GI50
Nc1nc(N)c2nnn(C[C@H]3CC[C@@H](CO)C3)c2n1	> 100 µM (inactive)
COc1cc(/C=C/C(=N\NS(=O)(=O)c2ccc(C)cc2)c2sc(NNC(C)=O)nc2C)ccc1O	> 100 µM (inactive)
C1CCN2CC3CCCN4CCCC(C2C1)C34 (stereo unspecified)	> 100 µM (inactive)
CCOC(=O)C1C(c2ccc3c(c2)OCO3)c2c(n[nH]c2O)CC1(O)OCC (stereo unspecified)	> 100 µM (inactive)
CCOC(=O)c1c(-c2ccc(Cl)cc2)c(C#N)c(=S)n(C2OC(COC(C)=O)C(OC(C)=O)C(OC(C)=O)C2OC(C)=O)c1C (stereo unspecified)	> 100 µM (inactive)

What GI50 value was documented for this molecule, O=C1NC(=O)C2C1c1[nH]c3ccccc3c1C1CCCC12 (stereo unspecified) ?
4.17 µM (inactive)

====

Examples of compounds with documented GI50 follow.
- System: SK-MEL-2
- measurement.notes: NCI tumour cell line growth inhibition, 48 h
Activity calls are given as the source filed them. Rule as the data show it: active = GI50 up to about 1.1 µM and inactive = higher.

compound	result
C=C1C(C2(C)C(OC(C)=O)CC(=O)OC(C)(COC(C)=O)C2CC(=O)OC)C(OC=O)C(OC(=O)C(O)C(C)CC)C2(C)C(c3ccoc3)CC(=O)C12O (stereo unspecified)	> 31.4 µM (inactive)
O=C(Cn1c(C(=O)c2ccccc2)nc2ccccc21)c1ccccc1	> 100 µM (inactive)
O=CC1C(=O)Nc2nc3ccccc3n2C1c1ccccc1 (stereo unspecified)	17.3 µM (inactive)
Cc1nc(O)nc2nc3ccc(Cl)cc3c(N(CCO)CCO)c12	> 100 µM (inactive)
COCN(CCC1=CCCCC1)C(=O)OC	> 100 µM (inactive)
COc1cc(NC(C)=O)ccc1C(=O)N/N=C/c1ccc(Cl)cc1Cl	19.2 µM (inactive)
NC(=O)C(c1ccccc1)N1CCOCC1 (stereo unspecified)	> 100 µM (inactive)
O=C(NC1C(=O)NNC1c1ccccc1Cl)c1ccccc1 (stereo unspecified)	> 100 µM (inactive)
NC(C(=O)O)C(N)C(=O)O (stereo unspecified)	> 100 µM (inactive)
COc1ccc(/C=C/C(=O)Oc2ccccc2OC)cc1	39 µM (inactive)

Please look at the following compound next.
What GI50 value was documented for this compound, [N-]=[N+]=NC1(Cc2ccccc2)C(=O)Nc2ccccc2C1=O (stereo unspecified) ?
> 100 µM (inactive)
